System: 885724-159-R-J1-PDC KRAS PDC multicell spheroid viability;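 further: spheroids exposed to agents for 7 days before readout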
ASSAY NAME: Anticancer human tumor 885724-159-R-J1-PDC patient-derived pancreatic adenocarcinoma cell line growth inhibition [KRAS2]
EXPERIMENTAL SETUP: second compound 0.316 µM; first compound 3.16 µM; active compounds read low
METRIC NAME: viability, T/C (%)
Give bare numbers, in %.

Previously resolved entries follow.
>>> test_result("Cn1nccc1Nc1nccc(-c2cc3c(s2)C(C)(C)N(CCN2CCOCC2)C3=O)n1 + CC1OCC2(CCN(c3cnc(Sc4ccnc(N)c4Cl)c(N)n3)CC2)C1N")
30.7
>>> test_result("O=C(c1cc(Cc2n[nH]c(=O)c3ccccc23)ccc1F)N1CCN(C(=O)C2CC2)CC1 + COc1cc2nc(C)nc(NC(C)c3cc(N)cc(C(F)(F)F)c3)c2cc1OC1CCOC1")
98

Next up:
Req: Name the reported viability, T/C value associated with the compound CCNC(=O)CC1N=C(c2ccc(Cl)cc2)c2cc(OC)ccc2-n2c(C)nnc21 (stereo not drawn) + COc1cc2nc(C)nc(NC(C)c3cc(N)cc(C(F)(F)F)c3)c2cc1OC1CCOC1
Resp: 51.7
